// data source = patent US10718028B2

PROCEDURE_DETAILS: Absorption and emission spectra of AP site binding probes in ethanol
Format: physicochemical
Examples of molecules with documented Stokes shift follow.
Kindly provide the numeric value in nm only, without the unit symbol.

Some entries whose results are on file:
Quick check: Stokes shift of Cc1cc(=O)oc2cc(OCCCON)ccc12 ? 50

Quick check: Stokes shift of NOCCCOc1ccc2cc(-c3ccc([N+](=O)[O-])cc3)c(=O)oc2c1 ? 185

Quick check: Stokes shift of NOCCCOc1ccc2cc(-c3ccc(N)cc3)c(=O)oc2c1 ? 80

Quick check: Stokes shift of CCCN1/C(=C/C=C2\CCCC(/C=C/C3=[N+](CCC)c4ccccc4C3(C)C)=C2Oc2ccc(CC(=O)NCCCON)cc2)C(C)(C)c2ccccc21 [Cy7MX, 2,2,2-trifluoroacetate] ? 20

Quick check: Stokes shift of CN(C)c1cccc2c(S(=O)(=O)NOCCCON)cccc12 ? 200

Consider the additional molecule presented here.
Quick check: Stokes shift of CCCN1/C(=C/C=C(/C=C/C2=[N+](CCC)c3ccccc3C2(C)C)c2ccc(C(=O)NCCCON)cn2)C(C)(C)c2ccccc21 [Cy5MX, 2,2,2-trifluoroacetate] ? 20
